B1: PhoQ; a variant is named by its letters at X, in order, P23837 (parent)
chain: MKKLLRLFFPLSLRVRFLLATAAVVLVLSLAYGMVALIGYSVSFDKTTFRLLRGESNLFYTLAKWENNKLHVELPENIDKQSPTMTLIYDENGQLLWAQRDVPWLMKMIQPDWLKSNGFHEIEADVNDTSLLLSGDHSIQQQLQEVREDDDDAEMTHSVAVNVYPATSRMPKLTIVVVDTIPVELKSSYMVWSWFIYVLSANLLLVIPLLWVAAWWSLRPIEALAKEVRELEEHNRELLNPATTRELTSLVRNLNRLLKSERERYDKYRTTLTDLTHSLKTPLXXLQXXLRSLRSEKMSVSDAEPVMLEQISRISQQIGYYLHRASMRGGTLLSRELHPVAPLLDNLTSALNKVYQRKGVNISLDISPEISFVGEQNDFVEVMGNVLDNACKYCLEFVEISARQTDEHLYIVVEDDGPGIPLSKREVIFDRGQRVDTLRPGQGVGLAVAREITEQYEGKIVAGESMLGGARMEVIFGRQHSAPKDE

variants of: B1; test: enrichment ratio after two sorts for PhoP signalling (ratio (wild type AVST 3.29)); higher = more functional; conditions: with PhoP (E. coli)
The full ranking holds about 140,000 sequences; the median of “enrichment ratio after two sorts for PhoP signalling” is about 0, and the highest 2% start at about 11. Shown is part of a subset that was picked to be rich in the highest values.
attribute-measured: enrichment ratio

    variant_identifier  attribute_measured  obs_value
 0                RPGL    enrichment ratio     ≤ 0.25
 1                FAPM    enrichment ratio      0.451
 2                EYAS    enrichment ratio     ≤ 0.25
 3                NDFR    enrichment ratio       2.54
 4                PCQL    enrichment ratio     ≤ 0.25
 5                THYA    enrichment ratio     ≤ 0.25
 6                ERAD    enrichment ratio     ≤ 0.25
 7                AHSY    enrichment ratio     ≤ 0.25
 8                FQPY    enrichment ratio     ≤ 0.25
 9                AGSY    enrichment ratio       14.7
10                QVCS    enrichment ratio     ≤ 0.25
11                HMKK    enrichment ratio     ≤ 0.25
12                WGGY    enrichment ratio     ≤ 0.25
13                AQSY    enrichment ratio       12.7
14                FMVL    enrichment ratio     ≤ 0.25
15                AISY    enrichment ratio       5.51
16                MWPS    enrichment ratio     ≤ 0.25
17                PYCA    enrichment ratio     ≤ 0.25
18                ETES    enrichment ratio     ≤ 0.25
19                VMIH    enrichment ratio     ≤ 0.25
20                NFAL    enrichment ratio     ≤ 0.25
21                YTAW    enrichment ratio     ≤ 0.25
22                SALY    enrichment ratio       11.8
23                IGAM    enrichment ratio     ≤ 0.25
24                AKSY    enrichment ratio       2.91
25                FSEI    enrichment ratio     ≤ 0.25
26                KALY    enrichment ratio     ≤ 0.25
27                NEMN    enrichment ratio     ≤ 0.25
28                CALN    enrichment ratio         65
29                VMWE    enrichment ratio     ≤ 0.25
30                HSKP    enrichment ratio     ≤ 0.25
31                KYAW    enrichment ratio     ≤ 0.25
32                SPLK    enrichment ratio     ≤ 0.25
33                SALK    enrichment ratio       15.2
34                HSTM    enrichment ratio       13.1
35                QILN    enrichment ratio     ≤ 0.25
36                SAVT    enrichment ratio       0.95
37                CLCR    enrichment ratio     ≤ 0.25
38                FALM    enrichment ratio         17
39                AWAS    enrichment ratio     ≤ 0.25
40                SQAW    enrichment ratio     ≤ 0.25
41                NALN    enrichment ratio     ≤ 0.25
42                TLHH    enrichment ratio     ≤ 0.25
43                PSLE    enrichment ratio     ≤ 0.25
44                DLNY    enrichment ratio     ≤ 0.25
45                DRYI    enrichment ratio     ≤ 0.25
